# reported IC50; entries follow
# Measured on: IDO1 (Homo sapiens)
# Sequence (P14902 whole entry, species assumed): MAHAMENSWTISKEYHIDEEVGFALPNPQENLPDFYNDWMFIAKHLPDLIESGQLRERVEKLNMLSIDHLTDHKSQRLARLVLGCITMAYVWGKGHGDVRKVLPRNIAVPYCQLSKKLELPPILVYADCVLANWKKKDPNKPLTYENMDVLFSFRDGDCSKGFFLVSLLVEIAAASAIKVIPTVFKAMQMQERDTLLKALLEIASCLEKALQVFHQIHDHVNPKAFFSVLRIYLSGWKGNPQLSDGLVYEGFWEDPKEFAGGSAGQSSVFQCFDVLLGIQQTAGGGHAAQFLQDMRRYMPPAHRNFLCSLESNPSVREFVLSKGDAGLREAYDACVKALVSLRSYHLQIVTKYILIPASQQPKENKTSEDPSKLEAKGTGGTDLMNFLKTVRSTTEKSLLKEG
# Assay comment: Biochemical IDO1 assay (NFK GreenScreen)
# Set-up: Recombinant full-length IDO1 (Seegers, N., et al.) and all other assay components were diluted in IDO1 reaction buffer; made in house
# Setup conditions: recombinant full-length IDO1 25 nM, L-tryptophan 100 μM, NFK Green detection; read-out: IC50, inhibitory potency on IDO1

// solved cases for IC50 follow
• O=C1CN(C(=O)c2c(F)cc(Br)cc2F)C(c2cccc(Br)c2)N1O (stereo not shown) = ≤ 1000 nM
• O=C1CN(C(=O)c2c(F)cc(C#CC3CC3)cc2F)C(c2cccc(Br)c2)N1O (single isomer, unassigned) [Example 144a] = ≤ 1000 nM
• CS(=O)(=O)NCc1cc(F)c(C(=O)N2CC(=O)N(O)C2c2cccc(Br)c2)c(F)c1 (stereo not shown) = ≤ 1000 nM

## Input For the compound shown here, O=C1CN(C(=O)c2ccncc2F)C(c2cccc(Br)c2)N1O (stereo not shown) , give the reported IC50.
## Output ≤ 1000 nM
